assay name: yeast display, Sf9 membrane polyspecificity reagent, FACS + sequencing; frameworks hold sequencing errors

input sequence: QVQLVESGGGLVQAGGSLRLSCAASGFTFYKNTMGWYRQAPGKERELVAAISSSGSSTYYADSVKGRFTISRDNAKNTVYLQMNSLKPEDTAVYYCAAGRFAYHDDYWGQGTQVTVSS
polyreactivity (PSR sort gate): high polyreactivity

input sequence: QVQLVESGGGIVQAGGSLRLSCAASGSTIDHYTMGWYSQAPGKERELVAAINRIGDSTYYADSVKGRFTISRDNAKNTVYLQMYSVNPEDTAVYYCAARHVPRFKNYGYWGQGTQVTVSS
polyreactivity (PSR sort gate): high polyreactivity

input sequence: QVQLVESGGGLVQSGGSLRLSCAASGRIFYYNAMGWYRQAPGKERELVAAITSSSGSSTYYADSVKGRFTISRDNAKNTVYLQMNSLKPEDTAVYYCNAASLDRFFGYRYNDDDYWGQGTQVTVSS
polyreactivity (PSR sort gate): low polyreactivity

input sequence: QDQLVESGGGLVQAGGSLRLSCAASGGIFLYYSMGWYRQAPGKERELVAAISRGGGRTYYADSVKGRFTISRDNAKNTVYLHMNSLKPEDTAVYYCAVEYGTGYQWWEYYYWGQGTQVTVSS
polyreactivity (PSR sort gate): high polyreactivity

input sequence: QVQLVESGGGLVQAGGILRLSCAASGSIIVYNSMVCYRQAPGKERELVARITGRGGRTYYADSVKGRFTISRDNAKNTVYLQMNSLKPEDTAVYYCAKYGYWGQGTQVTVSS
polyreactivity (PSR sort gate): high polyreactivity

input sequence: QVQLVESGGGLVQAGGSLRLSCAASGSTFGPYAMGWYRQAPGKERELVAVITTSGSTNYADSVKGRFTISRDNAKNTVYLQMNSLKPEDTAVSYCAARYRYYGTNRYYYWGQGTQVTVSS
polyreactivity (PSR sort gate): high polyreactivity

input sequence: QVQLVESGGGLVQAGGSLRLSCAASGIIFKRNAMGWYRQAPGKERELVAAITYRGTSTYYADSVKGRFTISRDNAKNTVYLQMNSLKPEDTAVYYCNAVGRSSGSAFNYWGQGTQVTVSS
polyreactivity (PSR sort gate): high polyreactivity

input sequence: QVQLVDSGGGLVQAGGSLRLSCPASGFIFAKYAKGWSRQAPGKERELGAAITSGGSTNYADSVTGRFTISRDNAKNTVYLQMHSLKPEDTAVYYCNRGFDWWYRYRHYDYWGQGTQVTVSS
polyreactivity (PSR sort gate): low polyreactivity

input sequence: QVQLVESGGGLVQAGGSLRLSCAASGGTFQYHAMGWYRQAPGKERELVAAITRSGGSTYYADSVKGRFTISRDNAKNTVYLQMNSLKPEDTAVYYCAVRYVYGYPRYNYWGQGTQVTVSS
polyreactivity (PSR sort gate): high polyreactivity

input sequence: QVQLVESGGGLVQAGGSLRLSCAASGSTFSRYAMGWYRQAPGKERELVAAIRRSAGSTYYADSVKGRFTISRDNAKNTVYLQMNSLKPEDTAVYYCAAAGRYDYWGQGTQVTVSS
polyreactivity (PSR sort gate): high polyreactivity

input sequence: QVQLVESGGGLVQAGGSLRLSCAASGLTFYKNAMGWYRQAPGKVRELVAVISSSGGSTYYADSVKGRFTISRDKAKNTVYLQMNSLKPEDTAVYYCARDLYTEYRWGRLTYDYWGQGTQVTVSS
polyreactivity (PSR sort gate): low polyreactivity

input sequence: QVHLVETGGGLVQEGGSLRLSCAATGSNFGQNAMGWYRQAPGKERELVAAITRRGVATYYADSVKGRFTISRDNAKNTVYLQLISLKPEDTAVYYCAKRYHPNSPYDYWGQGTQVTVSS
polyreactivity (PSR sort gate): low polyreactivity
